Collected MIC90 values appear next to each entry.
Test system: Neisseria gonorrhoeae
Assay: MIC against 100 N. gonorrhoeae isolates, CLSI reference agar dilution
Type: cell-based
Settings: all 100 N. gonorrhoeae isolates
API: value field is a number in µg/mL; no unit string.

Illustrative cases are given below, each with its answer.
CO/N=C(\C(=O)N[C@@H]1C(=O)N2C(C(=O)O)=C(CSc3nc(=O)c(O)nn3C)CS[C@H]12)c1csc(N)n1 [ceftriazone, reference compound]
0.06
CN(C)[C@@H]1C(=O)C(C(N)=O)=C(O)[C@@]2(O)C(=O)C3=C(O)c4c(O)cccc4[C@@](C)(O)[C@H]3C[C@@H]12 [tetracycline, reference compound]
2
C=CC1=C(C(=O)O)N2C(=O)[C@@H](NC(=O)/C(=N\OCC(=O)O)c3csc(N)n3)[C@H]2SC1 [cefixime, reference compound]
0.06

Turning to the following compound.
IN: May I ask what MIC90 has been recorded for C[C@@H]1CN2c3c(cc4c(N5C(=O)OC[C@@H]5C)noc4c3F)CC3(C(=O)NC(=O)NC3=O)[C@H]2[C@H](C)O1 [Example 5] ?
OUT: 0.12

Origin of measurements: patent US8889671B2
